Biological target: DNA topoisomerase 1 (Homo sapiens)
Test: Inhibition of Top1 (unknown origin)-mediated pBR322 DNA cleavage using ethidium bromide staining at 100 uM after 15 mins by electrophoresis analysis
Calls of active or inactive are those of the source. The rule behind the calls is not given here.
Quantity name: inhibition

O=C1c2cc(O)ccc2SC2c3[nH]c4ccc(O)cc4c3CCN12 (stereo not drawn); Active
COc1ccc2[nH]c3c(c2c1)CCN1C(=O)c2cc(F)ccc2SC31 (stereo not drawn); Active
O=C1c2cc(F)ccc2SC2c3[nH]c4ccc(O)cc4c3CCN12 (stereo not drawn); Active

---

Parameter pIC50: see the listing below.
System: HCT-116
Assay: Cytotoxicity against human HCT116 cells after 72 hrs by MTT assay
Assay type: functional, cell-based
Conditions: HCT-116, 72 h
pIC50: −log10 of the molar value.

Study these solved cases before continuing.
O=C1c2cccnc2SC2c3[nH]c4ccccc4c3CCN12 (stereo unspecified); < 3.70
COc1ccc2[nH]c3c(c2c1)CCN1C(=O)c2ccccc2OC31 (stereo unspecified); < 3.70

Enquiry: Determine from records and report pIC50 for COc1ccc2[nH]c3c(c2c1)CCN1C(=O)c2sccc2N(C)C31 (stereo unspecified)
Return: < 3.70

Enquiry: Determine from records and report pIC50 for COc1ccc2[nH]c3c(c2c1)CCN1C(=O)c2ccc4ccccc4c2OC31 (stereo unspecified)
Return: < 3.70

Enquiry: Determine from records and report pIC50 for Cc1cccc2c1C(=O)N1CCc3c([nH]c4ccc(O)cc34)C1O2 (stereo unspecified)
Return: > 8.52

Enquiry: Determine from records and report pIC50 for O=C1c2cccc(O)c2OC2c3[nH]c4ccccc4c3CCN12 (stereo unspecified)
Return: < 3.70

Enquiry: Determine from records and report pIC50 for COc1ccc2[nH]c3c(c2c1)CCN1C(=O)c2ccc(C)cc2OC31 (stereo unspecified)
Return: < 3.70

Enquiry: Determine from records and report pIC50 for O=C1c2cc(O)ccc2SC2c3[nH]c4ccc(O)cc4c3CCN12 (stereo unspecified)
Return: > 8.52

---

System: HCT-116
Assay: Cytotoxicity against human HCT116 cells after 72 hrs by MTT assay
Type: functional, cell-based
Settings: HCT-116, 72 h
Quantity name: IC50 (µM)
Give the value in µM but do not write µM after it.

Study these solved cases before continuing.
CCCN(CCC)c1ccc2c(c1)C(=O)N1CCc3c([nH]c4ccccc34)C1O2 (stereo unspecified); 2.3
O=C1c2ccc(O)cc2OC2c3[nH]c4ccccc4c3CCN12 (stereo unspecified); 54.1
COc1ccc2[nH]c3c(c2c1)CCN1C(=O)c2cccc(OC)c2OC31 (stereo unspecified); 52.7
CC(C)CNc1ccc2c(c1)C(=O)N1CCc3c([nH]c4ccccc34)C1O2 (stereo unspecified); 5.3
O=C1c2cc(Br)ccc2OC2c3[nH]c4ccccc4c3CCN12 (stereo unspecified); 13.8
COc1ccc2[nH]c3c(c2c1)CCN1C(=O)c2ccsc2N(C)C31 (stereo unspecified); 14.1

Enquiry: Supply IC50 measured with HCT-116 for COc1ccc2[nH]c3c(c2c1)CCN1C(=O)c2cscc2N(C)C31 (stereo unspecified) .
Return: 94.9

Enquiry: Supply IC50 measured with HCT-116 for COc1ccc2oc3c(c2c1)CCCN1C(=O)c2ccccc2N(C)C31 (stereo unspecified) .
Return: 5.3

Enquiry: Supply IC50 measured with HCT-116 for COc1ccc2[nH]c3c(c2c1)CCN1C(=O)c2cc(F)ccc2SC31 (stereo unspecified) .
Return: 6.5

Enquiry: Supply IC50 measured with HCT-116 for O=C1c2cc(F)ccc2OC2c3[nH]c4ccccc4c3CCN12 (stereo unspecified) .
Return: 5.8

Enquiry: Supply IC50 measured with HCT-116 for O=C1c2cc(I)cc(I)c2OC2c3[nH]c4ccccc4c3CCN12 (stereo unspecified) .
Return: 24.4

Enquiry: Supply IC50 measured with HCT-116 for CN1c2ccccc2C(=O)N2CCCc3c([nH]c4ccc(O)cc34)C21 (stereo unspecified) .
Return: 59.8
